EXPERIMENTAL PROTOCOL: Blood concentration in mice after subcutaneous administration
Format: in vivo
SETUP CONDITIONS: mouse, sc, 50 mg/kg, 120 mins

{"CHEMICAL SMILES": "CC1(C)S[C@@H]2[C@H](NC(=O)/C(=N\\OC3CCCCC3)c3csc(N)n3)C(=O)N2[C@H]1C(=O)O", "concentration at 2 h": "< 90 ng/mL"}

====

EXPERIMENTAL PROTOCOL: Blood concentration in mice after subcutaneous administration
Assay type: in vivo
SETUP CONDITIONS: mouse, sc, 50 mg/kg, 10 mins
RESULT TYPE: concentration at 10 min (ng/mL)

{"COMPOUND": "CC1(C)S[C@@H]2[C@H](NC(=O)/C(=N\\OC3CCCCC3)c3csc(N)n3)C(=O)N2[C@H]1C(=O)O [Example 4]", "RESULT TYPE": "concentration at 10 min", "MEASURED VALUE": 21800}

====

EXPERIMENTAL PROTOCOL: Blood concentration in mice after subcutaneous administration
Assay type: in vivo
SETUP CONDITIONS: mouse, sc, 50 mg/kg, 60 mins

{"CHEMICAL SMILES": "CC1(C)S[C@@H]2[C@H](NC(=O)/C(=N\\OC3CCCCC3)c3csc(N)n3)C(=O)N2[C@H]1C(=O)O", "concentration at 1 h (ng/mL)": 900}

====

EXPERIMENTAL PROTOCOL: Blood concentration in mice after subcutaneous administration
Type: in vivo
SETUP CONDITIONS: mouse, sc, 50 mg/kg

{"CHEMICAL SMILES": "CC1(C)S[C@@H]2[C@H](NC(=O)/C(=N\\OC3CCCCC3)c3csc(N)n3)C(=O)N2[C@H]1C(=O)O", "AUC / ng·h/mL": 9520}

====

EXPERIMENTAL PROTOCOL: Blood concentration in mice after subcutaneous administration
Assay type: in vivo
SETUP CONDITIONS: mouse, sc, 50 mg/kg, 30 mins

{"COMPOUND": "CC1(C)S[C@@H]2[C@H](NC(=O)/C(=N\\OC3CCCCC3)c3csc(N)n3)C(=O)N2[C@H]1C(=O)O [Example 4]", "concentration at 0.5 h / ng/mL": 7700}
